Source: paper PMC10334471

- System: CT26 (murine)
- assay_info: MTT assay, 72 h, CT26
- Format: cell-based
- measurement_conditions: 72 h treatment, mean ± SD
endpoint: pIC50
// field semantics: pIC50 = negative decimal log of concentration (mol/L)

Previously resolved entries follow.
{"compound": "N.N.[Cl][Pt][Cl] [Cisplatin, cisplatin]", "pIC50": 5.92}
{"compound": "CC(=O)[O][Pt-2]12([O]C(C)=O)([NH2+][C@@H]3CCCC[C@H]3[NH2+]1)[O]C(=O)C(=O)[O]2 [Ox(OAc)2]", "pIC50": 4.65}
{"compound": "O=C1[O][Pt]2([NH][C@@H]3CCCC[C@H]3[NH]2)[O]C1=O [Oxaliplatin, oxaliplatin]", "pIC50": 5.74}

Request: Record request: pIC50 value, item CC(=O)Oc1ccccc1C(=O)[O][Pt-2]12([O]C(C)=O)([NH2+][C@@H]3CCCC[C@H]3[NH2+]1)[O]C(=O)C(=O)[O]2 [OxAsaOAc]
Response: 4.89

Request: Look up pIC50: CC(=O)Oc1ccccc1C(=O)[O][Pt]([OH])([Cl])[Cl].N.N [Asplatin]
Response: 5.60

* * *

- Tested on: SW480
- assay_info: MTT assay, 72 h, SW480
- Format: cell-based
- measurement_conditions: 72 h treatment, mean ± SD
endpoint: log10 IC50 (log10 of the value in µM)
Response schema: value (number) is log10 of IC50 in units of µM.

{"compound": "O=C1[O][Pt]2([NH][C@@H]3CCCC[C@H]3[NH]2)[O]C1=O", "log10 IC50": 0.00}
{"compound": "N.N.[Cl][Pt][Cl] [Cisplatin, cisplatin]", "log10 IC50": 0.89}
{"compound": "CC(=O)Oc1ccccc1C(=O)[O][Pt-2]12([O]C(C)=O)([NH2+][C@@H]3CCCC[C@H]3[NH2+]1)[O]C(=O)C(=O)[O]2", "log10 IC50": 1.05}

Request: // log10 IC50 lookup, key: CC(=O)Oc1ccccc1C(=O)[O][Pt]([OH])([Cl])[Cl].N.N
Response: -0.22

Request: Fill in the blank: the reported log10 IC50 of CC(=O)[O][Pt-2]12([O]C(C)=O)([NH2+][C@@H]3CCCC[C@H]3[NH2+]1)[O]C(=O)C(=O)[O]2 is ____.
Response: 1.12

* * *

- Test system: HCT116
- assay_info: MTT assay, 72 h, HCT116
- Assay type: cell-based
- measurement_conditions: Homo sapiens, HCT-116, 72 h treatment, mean ± SD
endpoint: pIC50
Keep in mind that pIC50 stands for -log10 of concentration in molar terms.

Request: Which value of pIC50 has been reported for Cc1ccc(-c2cc(C(F)(F)F)nn2-c2ccc(S(N)(=O)=O)cc2)cc1 [Celecoxib] in the records?
Response: 4.12

* * *

- Test system: HCT116/OxR
- assay_info: MTT assay, 72 h, HCT116/OxR (oxaliplatin-resistant)
- Format: cell-based
- measurement_conditions: Homo sapiens, HCT-116, 72 h treatment, mean ± SD
endpoint: IC50 (µM)
Answer with a number only, understood to be in µM.

Request: HCT116/OxR / IC50 / Cc1ccc(-c2cc(C(F)(F)F)nn2-c2ccc(S(N)(=O)=O)cc2)cc1 [Celecoxib] : value?
Response: 79.2
